Listing of recorded pIC50 by entry.
tested on: MDA-MB-231; assay: Cytotoxicity against human MDA-MB-231 cells incubated for 24 hrs by CCK-8 reagent based spectrophotometric analysis; type: functional, cell-based; settings: MDA-MB-231, 24 h
Conceptually, pIC50 converts a concentration in mol/L into minus its log10.

Some solved cases for reference:
CN(C)CCN1CCN(c2ccc(-c3nc4ccc(F)cc4nc3-c3ccc(N4CCN(CCN(C)C)CC4)cc3)cc2)CC1; 5.54
CN(C)CCN(C)c1ccc(-c2nc3ccc(F)cc3nc2-c2ccc(N(C)CCN(C)C)cc2)cc1; 5.51
COc1ccc2nc(-c3ccc(N4CCN(CCO)CC4)cc3)c(-c3ccc(N4CCN(CCO)CC4)cc3)nc2c1; 5.89
CN(C)CCN(C)c1ccc(-c2nc3cc4ccccc4cc3nc2-c2ccc(N(C)CCN(C)C)cc2)cc1; 5.85
CN(C)CCN(C)c1ccc(-c2nc3ccc(C(F)(F)F)cc3nc2-c2ccc(N(C)CCN(C)C)cc2)cc1; 5.77

Problem: So what does the record say about pIC50 for CN(C)CCN1CCN(c2ccc(-c3nc4ccc(C(F)(F)F)cc4nc3-c3ccc(N4CCN(CCN(C)C)CC4)cc3)cc2)CC1 ?
Solution: 5.70

Problem: Consider the compound OCCN1CCN(c2ccc(-c3nc4ccc(F)cc4nc3-c3ccc(N4CCN(CCO)CC4)cc3)cc2)CC1 and give its measured pIC50.
Solution: 5.74

---

test system: Quadruplex DNA; assay: Stabilization of G-quadruplex 5-FAM-telomeric24 DNA-TAMRA-3 (unknown origin) assessed as change in melting temperature incubated for 2 hrs by FRET assay; assay type: nucleic-acid assay
measure.name: ΔTm (°C)
Quick note: give the figure in °C, leave out the unit.

Problem: Value lookup for ΔTm; key = COc1ccc2nc(-c3ccc(N4CCN(CCO)CC4)cc3)c(-c3ccc(N4CCN(CCO)CC4)cc3)nc2c1
Solution: 4.1

Problem: Query: ΔTm; subject: COc1ccc2nc(-c3ccc(N(C)CCO)cc3)c(-c3ccc(N(C)CCO)cc3)nc2c1
Solution: 0.1

Problem: Please report the recorded ΔTm for OCCN1CCN(c2ccc(-c3nc4ccc(F)cc4nc3-c3ccc(N4CCN(CCO)CC4)cc3)cc2)CC1 .
Solution: 3.2

---

Entries annotated with measured IC50 at 24 h
test: Cytotoxicity against human MCF-10A cells incubated for 24 hrs by CCK-8 reagent based spectrophotometric analysis; format: toxicity, cell-based
Give your result in µM as a bare value.

CN(C)CCN(C)c1ccc(-c2nc3ccc(F)cc3nc2-c2ccc(N(C)CCN(C)C)cc2)cc1; 8.8
CN(C)CCN1CCN(c2ccc(-c3nc4ccc(F)cc4nc3-c3ccc(N4CCN(CCN(C)C)CC4)cc3)cc2)CC1; 2.7

Problem: Sample COc1ccc2nc(-c3ccc(N4CCN(CCN(C)C)CC4)cc3)c(-c3ccc(N4CCN(CCN(C)C)CC4)cc3)nc2c1 — what was its IC50 at 24 h?
Solution: 3.4

Problem: Which value of IC50 at 24 h has been reported for CN(CCO)c1ccc(-c2nc3ccc(F)cc3nc2-c2ccc(N(C)CCO)cc2)cc1 in the records?
Solution: 18

Problem: Looking for the measured IC50 at 24 h of OCCN1CCN(c2ccc(-c3nc4cc5ccccc5cc4nc3-c3ccc(N4CCN(CCO)CC4)cc3)cc2)CC1 , can you help?
Solution: 2.8

Problem: # get_value(readout='IC50 at 24 h', item= COc1ccc2nc(-c3ccc(N4CCN(CCO)CC4)cc3)c(-c3ccc(N4CCN(CCO)CC4)cc3)nc2c1 )
Solution: 6.7

---

experiment: Cytotoxicity against human MCF-10A cells incubated for 24 hrs by CCK-8 reagent based spectrophotometric analysis; format: toxicity, cell-based
IC50 at 24 h by entry:
Enter your answer as a number in µM; do not include the unit.

Take a look at these entries with their results.
CN(C)CCN1CCN(c2ccc(-c3nc4cc5ccccc5cc4nc3-c3ccc(N4CCN(CCN(C)C)CC4)cc3)cc2)CC1; 3.7
CN(CCO)c1ccc(-c2nc3ccc(C(F)(F)F)cc3nc2-c2ccc(N(C)CCO)cc2)cc1; 20.5
CN(C)CCN(C)c1ccc(-c2nc3cc4ccccc4cc3nc2-c2ccc(N(C)CCN(C)C)cc2)cc1; 1.3

We next turn to a different molecule, shown below.
Problem: So what's the measured IC50 at 24 h for this one? OCCN1CCN(c2ccc(-c3nc4ccc(C(F)(F)F)cc4nc3-c3ccc(N4CCN(CCO)CC4)cc3)cc2)CC1
Solution: 4.1

---

test system: Quadruplex DNA; test: Stabilization of G-quadruplex 5-FAM-telomeric24 DNA-TAMRA-3 (unknown origin) assessed as change in melting temperature incubated for 2 hrs by FRET assay; assay type: nucleic-acid assay
Binary classification by ΔTm, with 2 °C as an inclusive lower bound for true; all other cases are false.

Example results:
CN(C)CCN(C)c1ccc(-c2nc3ccc(F)cc3nc2-c2ccc(N(C)CCN(C)C)cc2)cc1; true
OCCN1CCN(c2ccc(-c3nc4cc5ccccc5cc4nc3-c3ccc(N4CCN(CCO)CC4)cc3)cc2)CC1; false
CN(CCO)c1ccc(-c2nc3cc4ccccc4cc3nc2-c2ccc(N(C)CCO)cc2)cc1; false
CN(C)CCN(C)c1ccc(-c2nc3cc4ccccc4cc3nc2-c2ccc(N(C)CCN(C)C)cc2)cc1; true
OCCN1CCN(c2ccc(-c3nc4ccc(C(F)(F)F)cc4nc3-c3ccc(N4CCN(CCO)CC4)cc3)cc2)CC1; false

Problem: Is reported ΔTm greater than or equal to 2 °C here: COc1ccc2nc(-c3ccc(N4CCN(CCN(C)C)CC4)cc3)c(-c3ccc(N4CCN(CCN(C)C)CC4)cc3)nc2c1
Solution: true

Problem: Record CN(C)CCN1CCN(c2ccc(-c3nc4cc5ccccc5cc4nc3-c3ccc(N4CCN(CCN(C)C)CC4)cc3)cc2)CC1 ; criterion: ΔTm no lower than 2 °C. Met?
Solution: true

Problem: Say whether CN(C)CCN1CCN(c2ccc(-c3nc4ccc(F)cc4nc3-c3ccc(N4CCN(CCN(C)C)CC4)cc3)cc2)CC1 shows ΔTm of 2 °C or more.
Solution: true

Problem: Hi team, for CN(C)CCN(C)c1ccc(-c2nc3ccc(C(F)(F)F)cc3nc2-c2ccc(N(C)CCN(C)C)cc2)cc1 , is the recorded ΔTm at or above 2 °C?
Solution: true

Problem: Quick check, ΔTm >= 2 °C? CN(CCO)c1ccc(-c2nc3ccc(C(F)(F)F)cc3nc2-c2ccc(N(C)CCO)cc2)cc1
Solution: false

Problem: Quick check: does CN(CCO)c1ccc(-c2nc3ccc(F)cc3nc2-c2ccc(N(C)CCO)cc2)cc1 have ΔTm greater than or equal to 2 °C?
Solution: false

Problem: Would you say COc1ccc2nc(-c3ccc(N(C)CCN(C)C)cc3)c(-c3ccc(N(C)CCN(C)C)cc3)nc2c1 shows ΔTm at minimum 2 °C?
Solution: true

Problem: Please indicate if the recorded ΔTm for CN(C)CCN1CCN(c2ccc(-c3nc4ccc(C(F)(F)F)cc4nc3-c3ccc(N4CCN(CCN(C)C)CC4)cc3)cc2)CC1 meets or exceeds 2 °C.
Solution: true

---

assay: Cytotoxicity against human MCF-10A cells incubated for 24 hrs by CCK-8 reagent based spectrophotometric analysis; assay type: toxicity, cell-based
log10 IC50 at 24 h values by entry
On a log10 scale: recorded IC50 at 24 h, unit µM.

Some entries whose results are on file:
CN(C)CCN1CCN(c2ccc(-c3nc4ccc(C(F)(F)F)cc4nc3-c3ccc(N4CCN(CCN(C)C)CC4)cc3)cc2)CC1; 0.18
CN(CCO)c1ccc(-c2nc3cc4ccccc4cc3nc2-c2ccc(N(C)CCO)cc2)cc1; 1.05

Problem: What log10 IC50 at 24 h value was documented for this compound, OCCN1CCN(c2ccc(-c3nc4ccc(F)cc4nc3-c3ccc(N4CCN(CCO)CC4)cc3)cc2)CC1 ?
Solution: 0.80

Problem: // log10 IC50 at 24 h lookup, key: CN(C)CCN(C)c1ccc(-c2nc3ccc(C(F)(F)F)cc3nc2-c2ccc(N(C)CCN(C)C)cc2)cc1
Solution: 0.76

Problem: Look up log10 IC50 at 24 h for this compound: COc1ccc2nc(-c3ccc(N(C)CCN(C)C)cc3)c(-c3ccc(N(C)CCN(C)C)cc3)nc2c1
Solution: 1.14

Problem: Which value of log10 IC50 at 24 h has been reported for COc1ccc2nc(-c3ccc(N(C)CCO)cc3)c(-c3ccc(N(C)CCO)cc3)nc2c1 in the records?
Solution: 1.38

Just for reference, ChEMBL document CHEMBL5550165 is where these values come from.
